- STUDY_SYSTEM: CYP2D6 (Homo sapiens (Human), UniProt P10635)
- Sequence (P10635 whole entry): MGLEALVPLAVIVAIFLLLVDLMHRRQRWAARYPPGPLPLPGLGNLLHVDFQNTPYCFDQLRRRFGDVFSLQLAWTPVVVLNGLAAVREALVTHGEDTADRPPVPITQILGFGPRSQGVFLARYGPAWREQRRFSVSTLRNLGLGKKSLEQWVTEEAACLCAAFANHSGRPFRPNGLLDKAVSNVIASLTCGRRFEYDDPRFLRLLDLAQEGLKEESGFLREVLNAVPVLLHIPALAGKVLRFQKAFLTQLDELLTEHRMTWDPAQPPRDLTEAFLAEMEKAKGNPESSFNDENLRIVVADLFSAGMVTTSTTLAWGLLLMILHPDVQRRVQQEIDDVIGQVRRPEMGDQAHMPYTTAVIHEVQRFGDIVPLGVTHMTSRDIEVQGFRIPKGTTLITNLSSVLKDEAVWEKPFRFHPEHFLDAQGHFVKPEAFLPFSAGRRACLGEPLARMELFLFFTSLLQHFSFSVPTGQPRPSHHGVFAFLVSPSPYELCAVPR
- TEST_METHOD_NOTES: CYP450 inhibition at 10 μM, CYP2D6
- Type: in vitro ADME
- EXPERIMENTAL_CONTEXT: read-out: CYP 450 % INH @ 10 μM
READOUT_LABEL: inhibition at 10 µM (%)

C[C@@H]1CCN(C(=O)c2nc(N[C@@H](C)c3cccnc3)nc3ccsc23)C1    22
O=C(c1nc(NCc2cncc(F)c2)nc2ccsc12)N1CC[C@@H](O)C1    4
C[C@H](Nc1nc(C(=O)N2CC[C@@H](F)C2)c2sccc2n1)c1cccnc1    41

I. C[C@H](Nc1nc(C(=O)N2CC[C@@H](O)C2)c2sccc2n1)c1cccnc1
II. O=C(c1nc(NCc2cncc(F)c2)nc2ccsc12)N1CC[C@H](O)C1
Input: Name the one with the greater inhibition at 10 µM value, either I or II as given. Refer to your chosen item by its label in the answer.
Output: I
(I: 16%, II: 5%)
